Molecular target: Recombinant human His-tagged Trim24-PHD-bromodomain (Homo sapiens, UniProt O15164)
Construct: Recombinant human His-tagged Trim24-PHD-bromodomain (produced in-house)
Sequence (O15164 824-1006 limits assumed): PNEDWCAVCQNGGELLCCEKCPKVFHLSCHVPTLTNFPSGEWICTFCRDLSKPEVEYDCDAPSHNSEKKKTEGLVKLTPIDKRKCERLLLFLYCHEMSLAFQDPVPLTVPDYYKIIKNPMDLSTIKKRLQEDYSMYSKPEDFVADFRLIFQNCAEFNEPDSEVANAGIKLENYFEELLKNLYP
Test: Trim24 AlphaScreen Assay
Conditions: 5 nM Trim24 protein, 15 nM biotinylated H3K23ac (1-33aa) peptide
endpoint name: IC50

Worked examples follow.
Cn1cc(S(=O)(=O)Nc2cc3c(cc2Oc2cccc(OCC(F)(F)F)c2)n(C)c(=O)n3C)cn1: 10 to 100 nM
CCCOc1cc(OCCCO)cc(Oc2cc3c(cc2NS(=O)(=O)c2cn(C)c(C)n2)n(C)c(=O)n3C)c1: 10 to 100 nM
CCCOc1cccc(Oc2cc3c(cc2NS(=O)(=O)c2cccc(N(C)C)c2)n(C)c(=O)n3C)c1: 100 to 1000 nM

Q) Look up IC50 of Cn1c(=O)n(C)c2cc(Oc3cccc(OCc4ccccc4)c3)c(NS(=O)(=O)CCO)cc21 and report it.
A) > 1000 nM

Q) Report measured IC50; entry is COCCCOc1cccc(Oc2cc3c(cc2NS(=O)(=O)c2cn(C)c(C)n2)n(C)c(=O)n3C)c1
A) 100 to 1000 nM

Q) Identify the reported IC50 for the following entry. CCCOc1cc(OCCCOC)cc(Oc2cc3c(cc2NS(=O)(=O)c2cn(C(C)C)c(C)n2)n(C)c(=O)n3C)c1
A) 10 to 100 nM

Q) Tell me its IC50 given CCCOc1cc(OCCCCCCN(C)C)cc(Oc2cc3c(cc2NS(=O)(=O)c2cnn(C)c2C)n(C)c(=O)n3C)c1 as the entry.
A) 1 to 10 nM

###

target: Recombinant human His-tagged Trim24-PHD-bromodomain (Homo sapiens, UniProt O15164); construct: Recombinant human His-tagged Trim24-PHD-bromodomain (produced in-house); made in house; experiment: Trim24 AlphaScreen Assay; format: binding; details: 5 nM Trim24 protein, 15 nM biotinylated H3K23ac (1-33aa) peptide
pIC50: −log10 of the molar value.
Each entry below carries its recorded pIC50.

CCCOc1cc(OCCCOC)cc(Oc2cc3c(cc2NS(=O)(=O)c2ccc(OC)c(NC(C)=O)c2)n(C)c(=O)n3C)c1 [Example 159]: 7.00 to 8.00

Q) Give a short answer stating reported pIC50 for CCCOc1cc(OCCCCCCN)cc(Oc2cc3c(cc2NS(=O)(=O)c2cn(C)c(C)n2)n(C)c(=O)n3C)c1 [Example 182] .
A) 7.00 to 8.00

Q) Please supply the value of reported pIC50 for the item COc1ccc(S(=O)(=O)Nc2cc3c(cc2Oc2cc(OCCCCCCN(C)C)cc(OCC(F)(F)F)c2)n(C)c(=O)n3C)cc1OC [Example 205]
A) 8.00 to 9.00

Q) Please report the measured pIC50 for CCCOc1cc(OCCCOC)cc(Oc2cc3c(cc2NS(=O)(=O)c2cn(C)c(C)n2)n(C)c(=O)n3C)c1 [Example 94]
A) 7.00 to 8.00

Q) Give the value of pIC50 reported for the following: COc1cccc(S(=O)(=O)Nc2cc3c(cc2Oc2cccc(OCc4ccccc4)c2)n(C)c(=O)n3C)c1 [Example 18]
A) 6.00 to 7.00

Q) Give me measured pIC50, please, for this compound: Cc1nc(S(=O)(=O)Nc2cc3c(cc2Oc2cccc(OCC4CC4)c2)n(C)c(=O)n3C)cn1C [Example 58]
A) 7.00 to 8.00

Q) State its pIC50 for this compound: Cn1cnc(S(=O)(=O)Nc2cc3c(cc2Oc2cccc(OCCCC(=O)O)c2)n(C)c(=O)n3C)c1 [Example 227]
A) < 6.00

Q) Please report pIC50 for the following compound: Cc1n[nH]c(C)c1S(=O)(=O)Nc1cc2c(cc1Oc1cccc(OCC3CC3)c1)n(C)c(=O)n2C [Example 136]
A) 7.00 to 8.00
